Listed next: entries and their corresponding AUC(0-t).
assay: in vivo; conditions: male, CD-IGS, rat, po, 100 mg/kg/day

COMPOUND	AUC(0-t)
O=C1CCC(N2Cc3c(OCc4ccc(CN5CCN(c6ccc(F)cc6F)CC5)cc4)cccc3C2=O)C(=O)N1 (racemic)	441 µM·h

As a next step, examine the compound that follows.
Kindly note the recorded AUC(0-t) for N#Cc1ccc(N2CCN(Cc3ccc(COc4cccc5c4CN(C4CCC(=O)NC4=O)C5=O)cc3)CC2)c(F)c1 (racemic) , which is 143 µM·h

* * *

Listed next: entries and their corresponding IC50.
tested on: U266; experiment: Flow cytometry proliferation/apoptosis assay (120 h); type: cell-based, human; settings: Homo sapiens, U-266, read-out: Antiproliferative Activity (Flow Cytometry) IC50
The response must be a number in µM with no trailing unit.

MOLECULE	UNIT_TEXT	IC50
N#Cc1ccc(N2CCN(Cc3ccc(COc4cccc5c4CN([C@H]4CCC(=O)NC4=O)C5=O)cc3)CC2)c(F)c1	µM	0.00019

Kindly note the recorded IC50 for Nc1cccc2c1C(=O)N(C1CCC(=O)NC1=O)C2=O (centres unmarked) [Pomalidomide, pomalidomide] , which is 0.381

* * *

Listed next: entries and their corresponding IC50.
tested on: NCI-H929-1051 (lenalidomide-resistant); assay: Cell proliferation assay (CTG, 120 h); format: cell-based, human; conditions: Homo sapiens, 120 h, read-out: 0.01 μM Dex Combo IC50; H929-1051; Day 5; in combination with 0.01 μM dexamethasone
The response must be a number in nM with no trailing unit.

COMPOUND	REPORTED_METRIC	EXPERIMENTAL_VALUE
N#Cc1ccc(N2CCN(Cc3ccc(COc4cccc5c4CN([C@H]4CCC(=O)NC4=O)C5=O)cc3)CC2)c(F)c1	IC50	0.41

As a next step, examine the compound that follows.
Kindly note the recorded IC50 for Nc1cccc2c1C(=O)N(C1CCC(=O)NC1=O)C2=O (centres unmarked) [Pomalidomide, pomalidomide] , which is 3840

* * *

Biological target: α1B adrenergic receptor (Homo sapiens, UniProt P35368)
Construct: host or cells: CHO cells
Sequence (P35368 1-520): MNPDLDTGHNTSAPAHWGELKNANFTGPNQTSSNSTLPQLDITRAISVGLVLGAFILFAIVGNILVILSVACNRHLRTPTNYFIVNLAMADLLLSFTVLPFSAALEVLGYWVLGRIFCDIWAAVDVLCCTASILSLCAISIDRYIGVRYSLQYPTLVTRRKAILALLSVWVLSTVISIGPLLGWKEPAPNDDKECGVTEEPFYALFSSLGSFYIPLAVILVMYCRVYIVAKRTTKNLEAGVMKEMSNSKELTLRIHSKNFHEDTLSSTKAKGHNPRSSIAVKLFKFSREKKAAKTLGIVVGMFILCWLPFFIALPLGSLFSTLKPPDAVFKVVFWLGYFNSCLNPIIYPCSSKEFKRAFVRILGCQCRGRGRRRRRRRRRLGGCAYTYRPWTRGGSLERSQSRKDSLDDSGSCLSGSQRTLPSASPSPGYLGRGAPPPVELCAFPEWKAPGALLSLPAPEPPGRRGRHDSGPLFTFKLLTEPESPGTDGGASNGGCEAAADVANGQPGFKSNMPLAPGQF
Experiment: α1B adrenergic receptor antagonist assay (cAMP, CHO cells)
Assay type: cell-based
REPORTED_METRIC: pIC50
Entry type: numeric. Quantity: pIC50, the -log10 of concentration in molar units.

COMPOUND	EXPERIMENTAL_VALUE
N#Cc1ccc(N2CCN(Cc3ccc(COc4cccc5c4CN(C4CCC(=O)NC4=O)C5=O)cc3)CC2)c(F)c1 (racemic) [Compound 1]	5.16

As a next step, examine the compound that follows.
Kindly note the recorded pIC50 for N#Cc1ccc(N2CCN(Cc3ccc(COc4cccc5c4CN([C@H]4CCC(=O)NC4=O)C5=O)cc3)CC2)c(F)c1 [Compound 2] , which is 5.62
